Numbers sourced from PubChem BioAssay (NCATS).

Task for the reader: assign each of the following molecules its reported max response.
Test system: HEK293
test: Cytotoxic Profiling of Annotated Libraries Using Quantitative High-Throughput Screening (AID 1296008); also: % is scaled to controls: 0 for no effect and ±100 for the full control effect; nearly all actives have a fitted effect of over 60% in size
details: Five cell lines viability, CellTiter-Glo ATP luminescence, 48-72 h; active compounds read low
Inconclusive results are not listed.
Numeric only. Scale: %

Sample "COC(=O)C1=CO[C@@H](O[C@@H]2O[C@H](CO)[C@@H](O)[C@H](O)[C@H]2O)[C@H]2[C@@H]1[C@H](O)[C@H](O)[C@]2(C)O" ; max response observed: 1.23

Sample COc1c2c(c(C)c3c1C(=O)OC3)OC1(C)CC(O)C34OC(OC)(CC(O)C3(C)C1C2)OC4(C)C (configuration not stated) ; max response observed: -15.9

Sample CCCC1=CC2=C(CO1)C(=O)C(C)(O)C(OC(=O)c1c(C)cc(OC)cc1O)C2 (configuration not stated) ; max response observed: -3.53

Sample C=C(C)[C@@H]1CC[C@]2(C(=O)O)CC[C@]3(C)C(CCC4[C@]5(C)C(CC[C@]43C)C(C)(C)[C@@H](O)[C@@H]5C(=O)O)C12 (some centres not stated) ; max response observed: -0.322

Sample "COc1cc(/C=C/c2ccccc2)c(C(=O)O)c(O)c1CC=C(C)C" ; max response observed: 2.12

Sample CC(C)c1ccc2c(c1)CCC1[C@](C)(C(=O)O)CCC[C@]21C (some centres not stated) ; max response observed: 2.37

Sample "C[C@@H]1O[C@@H](O[C@H]2[C@H](Oc3cc(O)c(C(=O)CCc4ccc(O)cc4)c(O)c3)O[C@H](CO)[C@@H](O)[C@@H]2O)[C@H](O)[C@H](O)[C@H]1O" ; max response observed: -1.52

Sample "COc1ccc(-n2[nH]c3c(cnc4ccccc43)c2=O)cc1" ; max response observed: -1.19

Sample C[C@@H]1CCC2C(C)(C)[C@H](O)[C@H](O)C[C@]2(C)[C@@]12Cc1c(O)cc3c(c1O2)CN(CCCC(=O)O)C3=O (some centres not stated) ; max response observed: -1.57

Sample COc1c(-c2ccc(O)cc2)cc(OC)c2c1oc1cc(O)c(OC3OC(CO)C(O)C3O)cc12 (configuration not stated) ; max response observed: -3.64

Sample "CNc1nc(Nc2cn(C(C)(C)C#N)nc2C)ncc1C(F)(F)F" ; max response observed: -5.29

Sample CCC(C)C(=O)O[C@H]1[C@@H](O[C@H]2O[C@H](CO)[C@@H](O)[C@H](O)[C@H]2O)O[C@H](CO)[C@@H](O)[C@@H]1O (some centres not stated) ; max response observed: -6.33

Sample "O=C(O)C[C@H]1CCC(=O)[C@@H]1C/C=C\CCO" ; max response observed: 0.813

Sample CC1(C)CC[C@]2(C(=O)O[C@@H]3O[C@H](CO)[C@@H](O)[C@H](O)[C@H]3O)CC[C@]3(C)C(=CCC4[C@@]5(C)CC[C@H](O[C@@H]6O[C@H](C(=O)O)[C@@H](O[C@@H]7O[C@H](CO)[C@@H](O)[C@H](O)[C@H]7O)[C@H](O)[C@H]6O)C(C)(C)C5CC[C@]43C)C2C1 (some centres not stated) ; max response observed: 3.3

Sample CC(=O)O[C@H]1C[C@@H](O)C(C)(C)C2C[C@@H](OC(C)=O)[C@@]3(C)C4=CCC(C(CO)CC(O)C5OC5(C)C)[C@]4(C)CCC3[C@]21C (some centres not stated) ; max response observed: -1

Sample "NC1(c2ccc(NC(=O)c3ccnc(-c4cc(C(=O)O)ccn4)c3)cc2)CC1" ; max response observed: -8.28

Sample "CCc1cccc2c3c([nH]c12)[C@@](CC)(CC(=O)O)OCC3" ; max response observed: 3.28
